Experiment: Full PK analysis of 37d
Format: in vivo, CD-1 mice
Details: CD-1, mouse, plasma, po, 50 mg/kg
recorded-metric: half-life (h)
# output: bare number, implied unit h

// recorded half-life for Cc1cc(F)cc(C)c1C(=O)c1sc2cc(O)ccc2c1Oc1ccc(OC2CN(CCCF)C2)cc1 [37d] : 4.5

---

Target: ERα (Homo sapiens, UniProt P03372)
Sequence (P03372 whole entry): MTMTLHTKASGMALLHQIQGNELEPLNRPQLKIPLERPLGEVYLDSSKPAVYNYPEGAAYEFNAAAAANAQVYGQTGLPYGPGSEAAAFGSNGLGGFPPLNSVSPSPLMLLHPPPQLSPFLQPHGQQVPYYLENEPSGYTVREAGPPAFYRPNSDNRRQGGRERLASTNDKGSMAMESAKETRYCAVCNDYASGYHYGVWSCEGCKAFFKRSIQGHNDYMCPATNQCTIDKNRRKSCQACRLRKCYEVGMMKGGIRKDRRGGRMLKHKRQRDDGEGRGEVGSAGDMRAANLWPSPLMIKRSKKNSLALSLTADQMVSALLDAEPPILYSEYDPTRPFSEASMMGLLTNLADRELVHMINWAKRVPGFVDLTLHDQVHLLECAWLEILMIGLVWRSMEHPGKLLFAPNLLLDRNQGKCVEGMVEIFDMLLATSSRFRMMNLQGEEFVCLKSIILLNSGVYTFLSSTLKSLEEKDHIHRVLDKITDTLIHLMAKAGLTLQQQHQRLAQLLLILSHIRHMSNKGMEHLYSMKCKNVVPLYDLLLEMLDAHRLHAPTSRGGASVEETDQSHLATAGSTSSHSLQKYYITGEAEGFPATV
Experiment: ER in-cell western
Type: cell-based
Conditions: MCF7:WS8, 24 h treatment
recorded-metric: ERα degradation by ICW, result in words

get_value(item= Cc1cc(O)ccc1C(=O)c1sc2cc(O)ccc2c1Oc1ccc(OCCN2CC(CF)C2)cc1 [30h] , readout=ERα degradation by ICW, result in words) returns reduced efficacy

Sample Cc1cc(F)cc(C)c1C(=O)c1sc2cc(O)ccc2c1Oc1ccc(OCCN2CC[C@H](CF)C2)cc1 [30n] ; ERα degradation by ICW, result in words observed: reduced efficacy

Briefly, ERα degradation by ICW, result in words measured for Cc1ccccc1C(=O)c1sc2cc(O)ccc2c1Oc1ccc(OCCN2CCC2)cc1 [30a] : reduced efficacy

Every entry's value here was drawn from paper PMC7261373.
